From: paper PMC7819943

- TARGET SYSTEM: OsWOX13 (Oryza sativa, UniProt Q5QMM3 1-267)
- Sequence: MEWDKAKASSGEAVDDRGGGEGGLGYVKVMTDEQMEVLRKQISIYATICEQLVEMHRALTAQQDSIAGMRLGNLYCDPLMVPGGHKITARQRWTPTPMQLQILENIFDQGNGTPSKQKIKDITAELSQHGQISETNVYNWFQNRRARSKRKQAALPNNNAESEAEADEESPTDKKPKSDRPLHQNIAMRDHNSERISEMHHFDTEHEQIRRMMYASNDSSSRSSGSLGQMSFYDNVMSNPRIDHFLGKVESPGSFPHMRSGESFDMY
- ASSAY DETAILS: protein-binding microarray (RPBM); PBS, 2% BSA, 51.3 ng/ul salmon testes DNA, 50 uM zinc acetate, 200 nM TF, 25 C, 1 h; high values mean tight binding
- EXPERIMENTAL CONTEXT: protein: recombinant; tags: N-terminal polyhistidine and DsRed monomer fusion (pET32a); label: CyDye5-dUTP incorporated in the synthesized complementary strand; 3' TTTTT single-stranded linker to array surface; dsDNA, one strand shown
In all, about 35,000 sequences were measured (“fluorescence intensity (a.u.)”: median about 10,000, highest 2% from about 52,000 on). The full list was thinned out, with the highest values kept by preference.
VALUE KIND: binding signal

Please review the entries below; each comes with its answer.
# MACROMOLECULE SEQUENCE, binding signal
measured = [
    ("TTCATATAATTTATAAGGGACATAATGTAATCACCCTATACGGAGTCACCTAGTGCAG", "10300 fluorescence intensity (a.u.)"),
    ("ATGGATTAATTAGGCTCAAAAGATTTGTCTCACTATTTCCCGGAGTCACCTAGTGCAG", "13500 fluorescence intensity (a.u.)"),
    ("TCCTGATTTCGCCGCCACTTGTAGCATCTGCCCGTGGGGTCGGAGTCACCTAGTGCAG", "5510 fluorescence intensity (a.u.)"),
    ("AAACTGATTGACGGTTTTCTTTCTAAAACTGATTTTCAGGCGGAGTCACCTAGTGCAG", "43200 fluorescence intensity (a.u.)"),
    ("CACGGATTATTTTGAGCAATTACCGCTCTAATCCGGGGCGCGGAGTCACCTAGTGCAG", "3600 fluorescence intensity (a.u.)"),
    ("TGGGTAGGGGCAGTTAATTGGGAGGGAATTCCTCCTTCACCGGAGTCACCTAGTGCAG", "8890 fluorescence intensity (a.u.)"),
    ("TTTAAGATCATGATTAACATGACATTGAAGCATTACCACGCGGAGTCACCTAGTGCAG", "5610 fluorescence intensity (a.u.)"),
    ("GCCGGGAGGGAGGGAGGGAGGGAGGGAGGGAGACCCCGCACGGAGTCACCTAGTGCAG", "9960 fluorescence intensity (a.u.)"),
    ("ATTTAAATTTCCATCCTTAAATTTGAAGGTGATTTTGAGGCGGAGTCACCTAGTGCAG", "21500 fluorescence intensity (a.u.)"),
    ("CTCACATGTTAATTACCATCAATGTATTTTACTCTTTTAACGGAGTCACCTAGTGCAG", "16700 fluorescence intensity (a.u.)"),
]

Asked: Give binding signal; test system OsWOX13 (Oryza sativa, UniProt Q5QMM3 1-267); sequence ATGGCTAATTATGGACTAATTAGACTCAAAAGATTCGTTTCGGAGTCACCTAGTGCAG
Given back: 19800 fluorescence intensity (a.u.)

Asked: Supply binding signal measured with OsWOX13 (Oryza sativa, UniProt Q5QMM3 1-267) for AAATTTTGATTTTAAAACTTAATTGTAAAGTTGACTTTAACGGAGTCACCTAGTGCAG .
Given back: 9040 fluorescence intensity (a.u.)

Asked: Write down measured binding signal (OsWOX13 (Oryza sativa, UniProt Q5QMM3 1-267)) for this sequence. CTTTAAATTTTAACTTTTGCATTGGCTTATTAGACCAACTCGGAGTCACCTAGTGCAG
Given back: 4620 fluorescence intensity (a.u.)

Asked: Please report binding signal with OsWOX13 (Oryza sativa, UniProt Q5QMM3 1-267) for item TTGATAGTAAATCAAACATTAATAAAGGCCTGTTCACTTTCGGAGTCACCTAGTGCAG .
Given back: 8860 fluorescence intensity (a.u.)

Asked: Identify measured binding signal obtained with OsWOX13 (Oryza sativa, UniProt Q5QMM3 1-267) for TTGATGTGCAATAATTAACGAGAGAAGAGTTTTCCCATAGCGGAGTCACCTAGTGCAG .
Given back: 10300 fluorescence intensity (a.u.)
